Kindly state protease activity in the course of time of storage at 37° C. for each of the entries shown.
biological target: Savinase® 16.0L (Lederbergia lenta, UniProt P29600); construct: purchased Sigma-Aldrich; test: Protease storage stability in liquid formulations at 37° C. (Suc-AAPF-pNA assay); format: biochemical; conditions: base formulation III, 2.0 wt% compound, 0.7 wt% Savinase 16.0 L; 7 d
Sequence (P29600 whole entry): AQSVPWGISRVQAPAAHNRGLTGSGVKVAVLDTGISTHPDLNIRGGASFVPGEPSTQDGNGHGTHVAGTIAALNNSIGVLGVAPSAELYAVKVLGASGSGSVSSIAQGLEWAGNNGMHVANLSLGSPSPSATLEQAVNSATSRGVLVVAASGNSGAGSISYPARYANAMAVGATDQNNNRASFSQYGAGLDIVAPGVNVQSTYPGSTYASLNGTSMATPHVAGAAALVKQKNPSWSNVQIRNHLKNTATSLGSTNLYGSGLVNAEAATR
Numbers only, in %.

Some compounds with known protease activity in the course of time of storage at 37° C. results, for comparison:
CCOC(=O)CC(CC(=O)OCC)(OC(C)=O)C(=O)OCC [A.5, Acetyltriethylcitrate] | 95
CCOC(=O)CC(O)(CC(=O)O)C(=O)O (stereo not drawn) [A.6, Monoethylcitrate] | 92
CCOC(=O)CC(O)(CC(=O)OCC)C(=O)OCC [A.1, Triethylcitrate] | 94
O=C(O)CC(O)(CC(=O)O)C(=O)O [B.1, citric acid, reference compound] | 84
CCCOC(=O)CC(O)(CC(=O)OCCC)C(=O)OCCC [A.2, Tripropylcitrate] | 100

Consider the additional compound presented here.
Reported protease activity in the course of time of storage at 37° C., compound CCOC(=O)C(=O)OCC [B.3, diethyloxalate, reference compound] : ____
85

Origin of measurements: patent US20210395650A1
